Tested on: FLT4
Conditions: concentration: 1 μM, replicates: in singlicate; n = 1;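 also: KINOMEscan kinase panel screen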
OBSERVED_PROPERTY: %Inh

Note to self: %Inh of CSc1ccc(-c2cc3ncnc(SCC(=O)O)c3s2)cc1 with FLT4 was 0%

Lab entry: FLT4 assay, molecule CN(C1=C(c2ccccc2)C(=O)NC1=O)c1ccccc1 , %Inh = 20%

Record Cc1cccc(-c2nc(Nc3ccc4ncsc4c3)c3ccccc3n2)n1 ; system FLT4; %Inh = 0%

Value sought: %Inh, system FLT4, item O=C(NCCNc1ccnc(Nc2ccc(F)cc2)n1)Nc1ccccc1F . Result: 0%

# COc1ccc(S(=O)(=O)NC2CCN(c3cc(C)nc(Nc4cccc(C#N)c4)n3)CC2)cc1.O=C(O)C(F)(F)F with FLT4: %Inh is 2%

Item CC(C)(C)n1cnc2c(N)ncnc21 ; assay system FLT4; %Inh reported as 0%

Result for Cn1cc(-c2ccc3c(c2)CCN3C(=O)Cc2ccccc2Cl)c2c(N)ncnc21 , tested on FLT4, %Inh: 99.8%

%Inh for FLT4 with input Cc1cn2c(=O)cc(N3CCOCC3)nc2n1Cc1cccc(Cl)c1Cl equals 39%

Form: item CC(C)Oc1ccc2c(-c3ccnc(Nc4ccc(N5CCN(C)CC5)cc4)n3)cnn2n1 ; test system FLT4; %Inh: 30%

Bench note, FLT4: CCn1cnc2c(N)ncnc21 , %Inh reads 13%

Form field, %Inh with FLT4, item Fc1ccc(-c2ncn(CCCN3CCOCC3)c2-c2ccccn2)cc1 : 0%

Bench note, FLT4: entry O=c1cc(N2CCOCC2)nc2n(Cc3cccc4ccccc34)ccn12 , its %Inh = 8%

// molecule N#Cc1ccc(-c2cc(-c3c[nH]nc3-c3ccccn3)ccn2)cc1 , assay FLT4, %Inh value: 0%

Entry CCc1ccnc(/C=C/c2n[nH]c3cc(Sc4ccccc4C(=O)NC)ccc23)c1 ; assay system FLT4; %Inh recorded at 99.9%

For the molecule CN1c2ccc(NCc3ccc(F)cc3)cc2-c2c(cnn2C)S1(=O)=O , the measured %Inh on FLT4 was 0%

Item: Fc1ccc(-c2nn3c(OCC(F)(F)F)cccc3c2-c2ccncc2)cc1 | System: FLT4 | %Inh: 0%

Form field, %Inh with FLT4, item CN(C(=O)c1ccc(-c2cc(-c3c[nH]nc3-c3ccccn3)ccn2)cc1)C1CCOCC1 : 0%

====

Tested on: EPHA1
Details: concentration: 1 μM, replicates: in singlicate; n = 1
OBSERVED_PROPERTY: %Inh (%)
Please state the figure in %; there is no need to write the unit.

Query CN(C(=O)c1ccc(-c2cc(-c3c[nH]nc3-c3ccccn3)ccn2)cc1)C1CCOCC1 yields %Inh of 0

The measured %Inh associated with O=C(NCCNc1ccnc(Nc2ccc(F)cc2)n1)Nc1ccccc1F reads 19

%Inh measured on Cl.Oc1cccc(Nc2ccnc3cc(-c4ccncc4)ccc23)c1 = 98.8

Record summary for CC(C)Oc1ccc2c(-c3ccnc(Nc4ccc(N5CCN(C)CC5)cc4)n3)cnn2n1 : reported %Inh = 48

The compound Fc1ccc(-c2nn3c(OCC(F)(F)F)cccc3c2-c2ccncc2)cc1 showed %Inh equal to 8

Measured %Inh, N#Cc1ccc(-c2cc(-c3c[nH]nc3-c3ccccn3)ccn2)cc1 : 17

Recorded result, Cc1ccc(NC(=O)c2ccnc(N3CCN(C)CC3)c2)cc1-c1ccc(C(=O)NCC2CC2)cc1 , %Inh: 0

%Inh recorded for this compound, O=C(c1ccc(-c2cc(-c3c[nH]nc3-c3ccccn3)ccn2)cc1)N1CCOCC1 , is 0

Form field %Inh, entry O=C(NCCCN1CCOCC1)c1cccc(Nc2nccc(Nc3ccc(Oc4ccccc4)cc3)n2)c1 : 0

Form field %Inh, entry Cc1c2ccc(N(C)c3ccnc(Nc4cccc(S(N)(=O)=O)c4)n3)cc2nn1Cc1ccccc1.Cl.Cl : 21

Please fill in: %Inh reported for Cl.Cl.Cl.Fc1ccc(-c2ncn(C3CCNCC3)c2-c2ccnc(Nc3ccccc3)n2)cc1 = 0

Documented %Inh of CNc1ncnc2[nH]ncc12 : 0

Record summary for c1ccc(-c2cc(-c3c[nH]nc3-c3ccccn3)ccn2)cc1 : reported %Inh = 0

Entry under test: COc1ccc(CNC(=O)NC2CCN(c3ccnc(Nc4ccc(OC)cc4)n3)C2)cc1 (stereo not drawn) . Its %Inh was 0

Looking up COC(=O)Nc1nc2cc(Oc3ccc(NC(=O)Nc4cc(F)ccc4F)cc3)ccc2[nH]1.Cl , I found its %Inh recorded as 11

// sample C[C@@H](Oc1cc(-n2cnc3ccc(NC(=O)NC(C)(C)C)cc32)sc1C(N)=O)c1ccccc1Cl , its %Inh was 4

// NS(=O)(=O)c1cccc(-c2ccc3ncc(N4CCOCC4)nc3c2)c1 : %Inh value = 0

The compound listed as CCCCCc1nc2c(N)ncnc2n1CCCCC shows %Inh equal to 0
